For each entry below, report its IC50 value.
- measurement target: PD-1-Ig/PD-L1-His (Homo sapiens, UniProt Q9NZQ7)
- Construct: [hPD-L1(19-239)-tobacco vein mottling virus protease cleavage site (TVMV)-His]; made in house; host or cells: HEK293T cells
- Sequence (Q9NZQ7 with tags, fused parts or gaps): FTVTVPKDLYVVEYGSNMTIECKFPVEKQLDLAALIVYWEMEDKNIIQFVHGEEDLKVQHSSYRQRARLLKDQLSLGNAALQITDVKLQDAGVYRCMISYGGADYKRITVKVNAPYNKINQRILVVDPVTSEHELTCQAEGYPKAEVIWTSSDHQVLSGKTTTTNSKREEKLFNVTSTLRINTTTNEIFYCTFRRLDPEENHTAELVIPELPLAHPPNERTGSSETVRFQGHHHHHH
- assay overview: PD-1/PD-L1 Homogenous Time-Resolved Fluorescence (HTRF) binding assay
- test context: inhibition of PD-1-Ig binding to PD-L1-TVMV-His; range classes
Starred links: 1 amine or outer side, 2 acyl side, 3 side chain; linkers in the order of their positions; H or OH if unused. Positions of bridges follow the written chain, without caps; N, C: chain ends. Non-standard residues stand in square brackets, D forms with d. Residues, ends and D or L forms follow the SMILES beside them. X1 = CCCC[C@@H](C(=O)[*:2])n1nnnc1[C@H](Cc1c[nH]c2ccccc12)N[*:1]; X3 = O=C(C[C@@H](CO)C(=O)[*:2])[C@H](Cc1c[nH]c2ccccc12)N[*:1]; X4 = CCCC[C@@H](C(=O)[*:2])n1nnnc1[C@H](Cc1csc2ccccc12)N[*:1]; Hyp = O=C(O)[C@@H]1C[C@@H](O)CN1; NMeNle = CCCC[C@H](NC)C(=O)O; NMeA = CN[C@@H](C)C(=O)O; Orn = NCCC[C@H](N)C(=O)O; Dap = NC[C@H](N)C(=O)O

Q) Name the recorded IC50 of the compound listed here: CCCC[C@H]1C(=O)N[C@@H](CN)C(=O)N[C@H](C(=O)NCC(N)=O)CSCC(=O)N[C@@H](Cc2ccc(O)cc2)C(=O)N2CCCC[C@H]2C(=O)N[C@@H](CC(N)=O)C(=O)N2CCC[C@H]2C(=O)N[C@@H](CN)C(=O)N[C@@H](CCC(=O)O)C(=O)N2C[C@H](O)C[C@H]2C(=O)N[C@@H](Cc2c[nH]c3ccccc23)C(=O)N[C@@H](CCN)C(=O)N[C@@H](Cc2cccc3ccccc23)c2nnnn2[C@@H](CCCC)C(=O)N1C [Example 1059]
A) 10 to 99 nM

Q) Name the recorded IC50 of the compound listed here: CCCC[C@H]1C(=O)N[C@@H](CCC(=O)O)C(=O)N[C@H](C(=O)NCC(N)=O)CSCC(=O)N[C@@H](Cc2ccc(O)cc2)C(=O)N(C)[C@@H](C)C(=O)N[C@@H](CC(N)=O)C(=O)N2CCC[C@H]2C(=O)N[C@@H](CN)C(=O)N[C@@H](CC(C)C)C(=O)N2C[C@H](O)C[C@H]2C(=O)N[C@@H](Cc2c[nH]c3ccccc23)C(=O)N[C@@H](CO)C(=O)N[C@@H](Cc2c[nH]c3ccccc23)c2nnnn2[C@@H](CCCC)C(=O)N1C [Example 1102] ({CH2CO}-Y[NMeA]NP[Dap]L[Hyp]WS[X1][NMeNle]ECG-NH2; thioether N-13)
A) 100 to 10000 nM

Q) Name the recorded IC50 of the compound listed here: CCCC[C@H]1C(=O)N[C@@H](CCCN)C(=O)N[C@H](C(=O)NCC(N)=O)CSCC(=O)N[C@@H](Cc2ccc(O)cc2)C(=O)N(C)[C@@H](C)C(=O)N[C@@H](CC(N)=O)C(=O)N2CCC[C@H]2C(=O)N[C@@H](Cc2cnc[nH]2)C(=O)N[C@@H](CC(C)C)C(=O)N2C[C@H](O)C[C@H]2C(=O)N[C@@H](Cc2c[nH]c3ccccc23)C(=O)C[C@@H](CO)C(=O)N[C@@H](Cc2csc3ccccc23)c2nnnn2[C@@H](CCCC)C(=O)N1C [Example 1013] ({CH2CO}-Y[NMeA]NPHL[Hyp][X3][X4][NMeNle][Orn]CG-NH2; thioether N-12)
A) 10 to 99 nM

Q) Name the recorded IC50 of the compound listed here: CCCC[C@H]1C(=O)N[C@@H](CCCN)C(=O)N[C@H](C(=O)NCC(N)=O)CSCC(=O)N[C@@H](Cc2ccc(O)cc2)C(=O)N(C)[C@@H](C)C(=O)N[C@@H](CC(N)=O)C(=O)N2CCC[C@H]2C(=O)N[C@@H](CN)C(=O)N[C@@H](CC(C)C)C(=O)N2C[C@H](O)C[C@H]2C(=O)N[C@@H](Cc2c[nH]c3ccccc23)C(=O)N[C@@H](CO)C(=O)N[C@@H](Cc2c[nH]c3ccccc23)c2nnnn2[C@@H](CCCC)C(=O)N1C [Example 1051] ({CH2CO}-Y[NMeA]NP[Dap]L[Hyp]WS[X1][NMeNle][Orn]CG-NH2; thioether N-13)
A) 100 to 10000 nM
